Tested on: U251 CNS
experiment.notes: NCI tumour cell line growth inhibition, 48 h
readout.type: TGI

Example entries and their recorded answers appear below.
- molecule: "CN1CCN(CCCBr)CC1"
  test.target: "U251 CNS"
  TGI: "> 100 µM"
- molecule: "CN(C(=O)c1ccco1)C(=S)N1CCN(c2ccccc2)CC1"
  test.target: "U251 CNS"
  TGI: "> 100 µM"
- molecule: "COc1cc(/C=C2/C[C@H]3[C@@H]4CC=C5C[C@@H](OC(C)=O)CC[C@]5(C)[C@H]4CC[C@]3(C)NC2=O)cc(OC)c1OC"
  test.target: "U251 CNS"
  TGI: "46.5 µM"

For every item below, please supply its TGI.
1. C=C1C(=O)OC2/C=C(/C)C(OC(C)=O)CC(O)/C(C)=C\C(OC(=O)/C(C)=C\C)C12 (stereo unspecified)
2. O=[N+]([O-])c1cccc([As]=[As]c2cccc([N+](=O)[O-])c2)c1 (stereo unspecified)

Output:
["> 100 µM", "0.22 µM"]

---

Test system: HCT-116 colon
experiment.notes: NCI tumour cell line growth inhibition, 48 h
readout.type: TGI

- compound: "C[Si](C)(C)c1ccc(-c2sc(-c3ccc([Si](C)(C)C)s3)c3c2C[Si]2(C3)Cc3c(-c4ccc([Si](C)(C)C)s4)sc(-c4ccc([Si](C)(C)C)s4)c3C2)s1"
  result: "> 100 µM"

For every item below, please supply its TGI.
1. CC1(C)CC(C)(C)C1=NNC(N)=O
2. Cc1nc2c(sc(=S)n2-c2ccccc2)c(=O)[nH]1
3. C[CH2][Sn]([CH2]C)([O]C(=O)C(OC(C)=O)c1ccccc1)[O]C(=O)C(OC(C)=O)c1ccccc1 (centres undefined)
4. CC#CC(=O)SCCNC(=O)CC

Output:
> 100 µM
> 100 µM
> 100 µM
> 10 µM

---

Tested on: UO-31 renal
experiment.notes: NCI tumour cell line growth inhibition, 48 h
Field: TGI. Provide a value for each of the compounds that follow.

- compound: "O=C(Nc1ccc(Cl)c(Cl)c1)O/N=C\\c1c(Cl)ccc([N+](=O)[O-])c1Cl"
  TGI: "2.88 µM"
- compound: "O=C(COc1ccc(/C=C2\\Oc3ccccc3C2=O)cc1)Nc1nc2c(s1)CCCC2"
  TGI: "> 49.5 µM"
- compound: "COc1ccc(OC)c(-c2c(C#N)c(N)nc(N3CCOCC3)c2C#N)c1"
  TGI: "> 100 µM"

For every item below, please supply its TGI.
1. Cc1ccc(C)c(NC(=O)CC/C(=N\NC(=O)c2c(O)ccc3ccccc23)C(C)C(=O)c2ccc(O)cc2)c1 (stereo not given)
2. COC(=O)C(CSSC[C@H](N/C(C)=C/C(C)=O)C(=O)OC)N/C(C)=C/C(C)=O (stereo not given in full)
3. Cc1ccc(S(=O)(=O)Nc2cccc3[nH]c(C(F)(F)F)nc23)cc1
4. CN(C)c1ccc2c(c1)OC(N)=C(C#N)C2c1ccc2c(c1)CCO2 (stereo not given)

Output:
1. > 100 µM
2. > 100 µM
3. > 57.5 µM
4. 35.4 µM

For every item below, please supply its TGI.
1. COc1ccc(-n2c(=O)n(C)c(=O)n2-c2ccc(OC)cc2)cc1
2. CC1(c2ccc[n+](Cc3ccccc3)c2)OCCO1
3. COc1c(O)cc(O)c2c(=O)cc(-c3ccccc3)oc12

Output:
["> 100 µM", "> 100 µM", "6.04 µM"]
